- TESTED_SYSTEM: PI3K delta (Homo sapiens)
- Construct: for the full-length p110-d subunit are generated and fused by overlapping PCR; p85(iSH2) fusion partner (same polypeptide; see partner chain) (N); Gly linker (N); His tag (C); Tn5 (Trichoplusia ni) or TiniPro insect cells
- PROTOCOL_NOTES: PI3K delta enzymatic assay (Kinase-Glo luminescence)
- CONDITION_DETAILS: Enzymatic Data
The entries below are paired with their reported pIC50.
// field semantics: pIC50 = negative decimal log of concentration (mol/L)

*Q* // query pIC50 value for entry COc1cc(-c2ccc3nc(C)c(-c4cnc(N)c(C(F)(F)F)c4)n3n2)ccc1OCCCN [Example 25]
*A* 7.62

*Q* I'd like to know its pIC50. The molecule in question is Cc1nc2ccc(-c3ccc(OCC4(NC(=O)C(C)C)COC4)cc3)nn2c1-c1cnc(N)c(C(F)(F)F)c1 [Example 114]
*A* 6.36

*Q* // query pIC50 value for entry Cc1nc2ccc(-c3ccc(OCC4(NC(=O)OCc5ccccc5)COC4)cc3)nn2c1-c1cnc(N)c(C(F)(F)F)c1 [Example 112]
*A* 5.74

*Q* Entry COc1cc(-c2ccc3nc(C)c(-c4cnc(N)c(C(F)(F)F)c4)n3n2)ccc1OCCNC(=O)Nc1cccnc1 [Example 51] has what pIC50?
*A* 5.78

*Q* For COc1ccc(-c2ccc3nc(C)c(-c4ccn(S(=O)(=O)c5ccc(C#N)cc5)n4)n3n2)cc1OC [Example 21] , what is its reported pIC50?
*A* 6.39

*Q* I am curious: what pIC50 value has been reported for Cc1nc2ccc(-c3ccc(S(C)(=O)=O)cc3)nn2c1-c1cncc(C#N)c1 [Example 19] ?
*A* 5.26

*Q* Given the entry COc1ccc(-c2ccc3nc(C)c(-c4ccc(N5CCOCC5)nc4)n3n2)cc1OC [Example 5] , report its measured pIC50.
*A* 5.96

====

- TESTED_SYSTEM: PI3K delta (Homo sapiens, UniProt O00329)
- Construct: for the full-length p110-d subunit are generated and fused by overlapping PCR; p85(iSH2) fusion partner (same polypeptide; see partner chain) (N); Gly linker (N); His tag (C); Tn5 (Trichoplusia ni) or TiniPro insect cells
- Sequence (O00329 with tags, fused parts or gaps limits assumed): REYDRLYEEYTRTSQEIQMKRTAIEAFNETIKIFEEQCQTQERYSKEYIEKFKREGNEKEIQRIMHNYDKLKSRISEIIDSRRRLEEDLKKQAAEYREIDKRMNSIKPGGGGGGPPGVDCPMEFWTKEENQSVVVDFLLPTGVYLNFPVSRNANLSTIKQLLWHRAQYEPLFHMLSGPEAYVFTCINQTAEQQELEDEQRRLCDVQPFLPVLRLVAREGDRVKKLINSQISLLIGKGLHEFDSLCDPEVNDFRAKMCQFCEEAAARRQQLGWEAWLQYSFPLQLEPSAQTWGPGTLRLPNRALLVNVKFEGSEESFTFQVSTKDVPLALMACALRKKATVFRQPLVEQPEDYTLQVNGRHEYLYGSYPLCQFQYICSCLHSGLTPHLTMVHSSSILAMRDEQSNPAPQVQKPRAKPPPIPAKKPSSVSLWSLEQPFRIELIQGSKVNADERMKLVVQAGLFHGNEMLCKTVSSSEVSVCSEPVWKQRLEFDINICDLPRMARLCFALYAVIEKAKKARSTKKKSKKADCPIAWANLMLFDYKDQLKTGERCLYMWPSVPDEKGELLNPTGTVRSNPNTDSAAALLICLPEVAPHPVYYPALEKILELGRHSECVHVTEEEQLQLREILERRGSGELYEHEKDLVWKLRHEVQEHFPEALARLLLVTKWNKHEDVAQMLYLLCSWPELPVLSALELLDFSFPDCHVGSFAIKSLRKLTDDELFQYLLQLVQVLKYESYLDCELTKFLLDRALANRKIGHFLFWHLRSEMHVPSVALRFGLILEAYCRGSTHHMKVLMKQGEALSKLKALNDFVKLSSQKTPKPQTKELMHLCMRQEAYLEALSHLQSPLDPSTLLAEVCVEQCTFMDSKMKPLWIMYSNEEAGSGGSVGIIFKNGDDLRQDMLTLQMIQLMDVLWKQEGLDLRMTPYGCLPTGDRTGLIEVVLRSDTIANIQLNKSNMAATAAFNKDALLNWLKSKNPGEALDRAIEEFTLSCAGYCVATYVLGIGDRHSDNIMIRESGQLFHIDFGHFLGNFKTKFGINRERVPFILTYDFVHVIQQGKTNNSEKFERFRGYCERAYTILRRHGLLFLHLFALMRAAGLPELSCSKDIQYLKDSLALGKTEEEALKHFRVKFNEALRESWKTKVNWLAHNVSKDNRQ
- PROTOCOL_NOTES: PI3K delta enzymatic assay (Kinase-Glo luminescence)
- CONDITION_DETAILS: Enzymatic Data
molecules and their reported IC50
Express it in µM; write the number only.

# example entries with known answers
> print(dat)
                              smiles.string                             tested.system  assay.readout  test.result
1  COc1cc(-c2ccc3nc(C)c(-c4cnc(N)c(C(F)(F)F)c4)n3n2)ccc1OCCNC(=O)Nc1cc(OC)c(OC)c(OC)c1  PI3K delta (Homo sapiens, UniProt O00329)           IC50         2.71
2  CCS(=O)(=O)c1ccc(-c2c(C)nc3ccc(-c4ccc(OCCCN5CCCC5=O)cc4)nn23)cc1  PI3K delta (Homo sapiens, UniProt O00329)           IC50         2.99
3  COc1cc(-c2ccc3nc(C)c(-c4cnc(N)c(C(F)(F)F)c4)n3n2)ccc1OCCCN1CCCC1=O  PI3K delta (Homo sapiens, UniProt O00329)           IC50        0.281

API: the following record is the query input.
*Q* Dear colleague, I am looking for the recorded IC50 of the following molecule: COc1cc(-c2ccc3nc(C)c(-c4cnc(N)c(C(F)(F)F)c4)n3n2)ccc1OCCNC(=O)Nc1cccc(C(F)(F)F)c1
*A* 4.13
